- PROTOCOL_DESCRIPTION: Dissociation constant, pKa by pressure assisted capillary electrophoresis
- Assay type: physicochemical
PARAMETER_MEASURED: pKa
The reply should be a number, written without any unit.

Given item O=C(NCc1ccc(Cl)cc1Cl)N1CCN(Cc2ccn(-c3ccc(C(F)(F)F)cc3)c2)CC1 , the value recorded as its pKa is 6.2

Measured pKa of O=C(NC1CCN(Cc2ccn(-c3ccc(C(F)(F)F)cc3)c2)CC1)NC(c1ccccc1)c1ccccc1 : 9.2

Consider O=C(CN1CCN(Cc2ccn(-c3ccc(C(F)(F)F)cn3)c2)CC1)NC(c1ccc(F)cc1)c1ccc(F)cc1 . Its measured pKa is 6.5

Record summary for O=C(NCc1ccc(Cl)cc1Cl)C1CCN(Cc2ccn(-c3ccc(C(F)(F)F)cn3)c2)CC1 : reported pKa = 8.3

The compound O=C(CC1CCN(Cc2ccn(-c3ccc(C(F)(F)F)cn3)c2)CC1)NC(c1ccc(F)cc1)c1ccc(F)cc1 showed pKa equal to 9.1

###

- SYSTEM_NAME: Melanin-concentrating hormone receptor 2 (Homo sapiens, UniProt Q969V1)
- Sequence (Q969V1 whole entry): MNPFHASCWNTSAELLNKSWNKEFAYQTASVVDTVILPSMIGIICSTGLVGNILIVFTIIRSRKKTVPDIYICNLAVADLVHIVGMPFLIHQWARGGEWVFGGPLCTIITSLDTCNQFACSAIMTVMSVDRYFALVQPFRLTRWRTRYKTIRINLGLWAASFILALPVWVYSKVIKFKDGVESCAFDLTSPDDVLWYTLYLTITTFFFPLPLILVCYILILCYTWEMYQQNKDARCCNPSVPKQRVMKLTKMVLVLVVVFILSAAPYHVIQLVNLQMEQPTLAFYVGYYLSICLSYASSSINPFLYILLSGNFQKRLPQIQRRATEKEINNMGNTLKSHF
- PROTOCOL_DESCRIPTION: Displacement of [125I]MCH from human MCHR2 expressed in CHO cells
PARAMETER_MEASURED: IC50
Provide a numeric answer, followed by its unit.

Short answer for O=C(CC1CCN(Cc2ccn(-c3ccc(C(F)(F)F)cc3)c2)CC1)NC(c1ccc(F)cc1)c1c[nH]c(=O)c(Cl)c1 (stereo unspecified) : IC50 was 4.6 µM

###

- SYSTEM_NAME: Melanin-concentrating hormone receptor 1 (Homo sapiens)
- Sequence (Q99705 whole entry): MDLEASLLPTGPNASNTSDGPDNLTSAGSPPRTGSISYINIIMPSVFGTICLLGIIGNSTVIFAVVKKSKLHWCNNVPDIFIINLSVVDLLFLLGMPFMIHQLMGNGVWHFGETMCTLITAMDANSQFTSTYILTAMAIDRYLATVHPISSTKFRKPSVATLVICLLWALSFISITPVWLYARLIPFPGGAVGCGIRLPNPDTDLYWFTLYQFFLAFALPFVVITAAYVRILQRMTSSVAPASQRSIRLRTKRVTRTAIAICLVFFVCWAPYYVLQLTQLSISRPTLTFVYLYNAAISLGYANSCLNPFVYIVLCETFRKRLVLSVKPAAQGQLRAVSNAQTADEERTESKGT
- PROTOCOL_DESCRIPTION: Displacement of [125I]MCH from human MCHR1 expressed in HEK293 cells
- Assay type: cell-based
For each of the molecules below, state its IC50.
// units = nM; emit number, no label

# molecule O=C(CC1CCN(Cc2ccn(-c3ccc(C(F)(F)F)cc3)c2)CC1)NC(c1ccc(F)cc1)c1ccc(=O)[nH]c1 (centres undefined) ; its IC50 = 2

Input O=C(CC1CCN(Cc2ccn(-c3ccc(C(F)(F)F)cc3)c2)CC1)N1CCOC(C(=O)N2CCCC2)C1 (centres undefined) . Output IC50: 173

Just so you know, measured IC50 for O=C(CC1CCN(Cc2ccn(-c3ccc(C(F)(F)F)cc3)c2)CC1)NC(c1ccccc1)c1ccccn1 (centres undefined) came out at 41

Briefly, IC50 measured for O=C(NCc1c(O)cc(Cl)cc1Cl)C1CCN(Cc2ccn(-c3ccc(C(F)(F)F)cc3)c2)CC1 : 144

The reported value for O=C(NCC1(O)CCCCC1)C1CCN(Cc2ccn(-c3ccc(C(F)(F)F)cc3)c2)CC1 in terms of IC50 is 40

According to the records, this molecule Cn1cccc1CNC(=O)CC1CCN(Cc2ccn(-c3ccc(C(F)(F)F)cc3)c2)CC1 displays IC50 of 313

For reference, reported IC50 for O=C(NCc1ccc(O)cc1Cl)C1CCN(Cc2ccn(-c3ccc(C(F)(F)F)cc3)c2)CC1 stands at 30

O=C(CC1CCN(Cc2ccc(-c3ccc(Cl)cc3)o2)CC1)NCC(O)C(F)(F)F (centres undefined) yielded IC50 of 815

The reported IC50 of the molecule Cc1nccn1CC(NC(=O)CC1CCN(Cc2ccn(-c3ccc(C(F)(F)F)cc3)c2)CC1)c1ccccc1 (centres undefined) was 65
